- STUDY_SYSTEM: Mitogen-activated protein kinase kinase kinase kinase 1 (Homo sapiens, UniProt Q92918)
- Sequence (Q92918 whole entry): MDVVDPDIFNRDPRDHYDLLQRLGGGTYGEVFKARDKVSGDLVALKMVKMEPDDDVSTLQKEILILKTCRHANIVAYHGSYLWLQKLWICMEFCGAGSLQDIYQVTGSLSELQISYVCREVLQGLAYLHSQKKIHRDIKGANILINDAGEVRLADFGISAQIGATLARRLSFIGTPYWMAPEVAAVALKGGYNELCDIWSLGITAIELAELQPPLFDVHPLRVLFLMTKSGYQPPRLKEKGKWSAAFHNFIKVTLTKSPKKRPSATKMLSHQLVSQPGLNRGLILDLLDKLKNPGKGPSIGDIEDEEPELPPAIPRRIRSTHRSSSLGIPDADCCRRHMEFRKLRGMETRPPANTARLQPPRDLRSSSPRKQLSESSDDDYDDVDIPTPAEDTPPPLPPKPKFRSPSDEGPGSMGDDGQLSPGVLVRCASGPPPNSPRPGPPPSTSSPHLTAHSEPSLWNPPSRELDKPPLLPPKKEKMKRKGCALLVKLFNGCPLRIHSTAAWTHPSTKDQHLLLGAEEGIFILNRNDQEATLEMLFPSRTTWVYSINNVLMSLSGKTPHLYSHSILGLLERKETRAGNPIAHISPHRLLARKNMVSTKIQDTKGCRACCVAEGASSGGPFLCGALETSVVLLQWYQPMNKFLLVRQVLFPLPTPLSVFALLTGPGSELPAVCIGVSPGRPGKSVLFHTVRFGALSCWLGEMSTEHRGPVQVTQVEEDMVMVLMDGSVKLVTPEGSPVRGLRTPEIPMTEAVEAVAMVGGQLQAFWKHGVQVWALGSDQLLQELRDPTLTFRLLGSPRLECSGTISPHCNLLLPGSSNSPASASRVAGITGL
- MEASUREMENT_DESCRIPTION: HPK1-SLP76 TR-FRET ASSAY
RESULT_TYPE: IC50 (pM)
A number alone suffices; assume pM.

Exercise: Which value of IC50 has been reported for "CCc1cc(C)ccc1Nc1nc(Nc2cc3c(cc2OC)CCN(C)C3)ncc1C(N)=O" in the records?
Solution: 80

Exercise: Also, "Cc1cc(F)c(Nc2nc(Nc3cc4c(cc3F)CCN(C)C4)ncc2C(N)=O)c(C(F)(F)F)c1" please.
Solution: 200

====

Measured IC50, listed per entry.
- STUDY_SYSTEM: Mitogen-activated protein kinase kinase kinase kinase 1 (Homo sapiens, UniProt Q92918)
- MEASUREMENT_DESCRIPTION: HPK1-SLP76 TR-FRET ASSAY
A number alone suffices; assume pM.

COc1cc2c(cc1Nc1ncc(C(N)=O)c(Nc3ccc(C)cc3C3CC3)n1)CN(C)CC2 [WO2022098809, Example 4-26]; 170
Cc1cccc(F)c1Nc1nc(Nc2c(C)nn(C)c2C)ncc1C(N)=O [WO2022098809, Example 4-35]; 158000

Exercise: Which value of IC50 has been reported for CN1CCc2cc(F)c(Nc3ncc(C(N)=O)c(Nc4c(F)ccc5c4OC(C)(C)C5)n3)cc2C1 [WO2022098809, Example 4-32] in the records?
Solution: 1130

Exercise: Also, COc1cc2c(cc1Nc1ncc(C(N)=O)c(Nc3ccc(C)cc3C(C)(C)C)n1)CN(C)CC2 [WO2022098809, Example 4-28] please.
Solution: 260

Exercise: Also, COc1cc2c(cc1Nc1ncc(C(N)=O)c(Nc3c(F)cccc3CC(F)F)n1)CN(C)CC2 [WO2022098809, Example 4-31] please.
Solution: 200

Just for reference, BindingDB's records for patent WO2022098809 is where these values come from.
